Values were extracted from the supplement of paper PMC4466140.

molecular target: AgBzz1-D1; test: SPOT peptide array binding signal intensity (averaged, normalized) (arbitrary units (background-subtracted, floor 0; scale differs between SH3 domains)); higher = stronger binding of the SH3 domain to the peptide
// classify(record): look up SPOT peptide array binding signal intensity in ranges b0: < 20; b1: ≥ 20 and < 80; b2: ≥ 80

Q) Bin this entry: `DKSRPPRPPPKPLHL`
A) b2

Q) Field entry: `KDKKTKPTPPPKPSH`
A) b1

Q) Field entry: `VRVKKRPLIRPLNSS`
A) b0

Q) Field entry: `SAPDIPPRSPNRNAH`
A) b1

Q) Field entry: `LKQRFFLMFPKSIIW`
A) b1

Q) Field entry: `RAPPPVPKKPSSRIA`
A) b2

Q) Field entry: `RVRKTHVPASKRPSG`
A) b0

Q) Field entry: `KKAPPPVVKPKPRNF`
A) b2

Q) Field entry: `PPPPPPPPPPLPQSL`
A) b1

Q) Field entry: `SSAAPPPPPRRATPE`
A) b2

Q) Field entry: `PSRRDSLSIPRAVDA`
A) b0

Q) Field entry: `PIVPSSPAPPLPLSG`
A) b0
